Test system: U251 CNS
Test: NCI-60 one-dose screen, 48 h (100 = growth as untreated, 0 = no growth, -100 = all killed)
Settings: 10 µM unless noted
Compounds without any hit were thinned out: in the full panel of roughly 83,000, 20% have a hit.
Returns one of 1 or -1; 1 when growth is >= 50%.

Consider the following illustrative entries.
{"columns": ["compound", "category_label"],
 "data": [
  ["CC(C)(Sc1cc(C(C)(C)C)c(O)c(C(C)(C)C)c1)Sc1cc(C(C)(C)C)c(OC(=O)CCCC(=O)O)c(C(C)(C)C)c1", -1],
  ["CC1(C)CC(=O)C2=C(C1)N(c1ccc(OC(F)(F)F)cc1)C(N)=C(C#N)C2c1ccc(Br)cc1F (centres undefined)", 1],
  ["CCN(CC)CCn1c2ccc(O)cc2c2sc3cc(O)ccc3c(=O)c21", -1],
  ["Cc1ccccc1/C=C/C(=O)c1cccc(OCCCCOc2cccc(C(=O)/C=C/c3ccccc3C)c2)c1", 1]
]}

INPUT: Decide: growth of CCO/C=N/C1=C(C#N)C(c2ccc(Cl)cc2)c2sc3c(F)cccc3c2O1 (centres undefined) >= 50%?
OUTPUT: -1

INPUT: Record O=C(/C=C(/C=C/c1ccc2[nH]ccc2c1)OB(F)F)/C=C/c1ccc2[nH]ccc2c1 ; criterion: growth no lower than 50%. Met?
OUTPUT: -1
